Assay: Pharmacokinetics/tissue distribution of GQD constituents in the livers of mice after oral GQD
Type: in vivo, Kunming mice
Details: both, Kunming, mouse, liver (homogenate); liver, mice, oral GQD extract 6.1 g/kg
I'd appreciate it if you could supply Cmax values for the items below.
One number for each entry, in ng/g.

SMILES_STRUCTURE	VALUE_KIND	MEASURED
O=c1c(-c2ccc(O)cc2)coc2c([C@@H]3O[C@H](CO)[C@@H](O)[C@H](O)[C@H]3O)c(O)ccc12	Cmax	2870
COc1cc2c(cc1O)CC[n+]1cc3c(OC)c(OC)ccc3cc1-2	Cmax	136

Please go through the list and note Cmax for each compound.
1. COc1c(O)cc(O)c2c(=O)cc(-c3ccccc3)oc12
2. O=C(O)[C@H]1O[C@@H](Oc2cc3oc(-c4ccccc4)cc(=O)c3c(O)c2O)[C@H](O)[C@@H](O)[C@@H]1O
3. COc1ccc2cc3[n+](cc2c1O)CCc1cc2c(cc1-3)OCO2

[839, 5710, 186]

###

Assay: Pharmacokinetics of GQD constituents in the systemic circulation of mice after oral GQD
Type: in vivo, Kunming mice
Conditions: both, Kunming, mouse; systemic circulation plasma, mice, oral GQD 6.1 g/kg
I'd appreciate it if you could supply MRT values for the items below.
One number for each entry, in h.

These recorded examples may help you get a feel for the data.
COMPOUND	UNIT_OF_MEASURE	MRT
COc1cc2c(cc1O)CC[n+]1cc3c(OC)c(OC)ccc3cc1-2 [Jatrorrhizine, jatrorrhizine]	h	3.9
CC1(C)[C@@H](O)CC[C@]2(C)[C@H]3C(=O)C=C4[C@@H]5C[C@@](C)(C(=O)O)CC[C@]5(C)CC[C@@]4(C)[C@]3(C)CC[C@@H]12 [Glycyrrhetinic acid, glycyrrhetinic acid]	h	8.4
O=c1cc(-c2ccccc2)oc2cc(O)c(O)c(O)c12 [Baicalein, baicalein]	h	6.8
COc1c(O)cc(O)c2c(=O)cc(-c3ccccc3)oc12 [Wogonin, wogonin]	h	3.6
O=c1c(-c2ccc(O)cc2)coc2c([C@@H]3O[C@H](CO)[C@@H](O)[C@H](O)[C@H]3O)c(O)ccc12 [Puerarin, puerarin]	h	3.3
COc1ccc2cc3[n+](cc2c1OC)CCc1cc2c(cc1-3)OCO2 [Berberine, berberine]	h	5.4
O=C(O)[C@H]1O[C@@H](Oc2cc3oc(-c4ccccc4)cc(=O)c3c(O)c2O)[C@H](O)[C@@H](O)[C@@H]1O [Baicalin, baicalin]	h	5.1

Given item COc1ccc2c(c1O)-c1c(O)c(OC)cc3c1[C@H](C2)[N+](C)(C)CC3 [Magnoflorine, magnoflorine] , the value recorded as its MRT is 2.6

###

Assay: Pharmacokinetics/tissue distribution of GQD constituents in the colons of mice after oral GQD
Type: in vivo, Kunming mice
Settings: both, Kunming, mouse, colon (homogenate); colon, mice, oral GQD extract 6.1 g/kg; read-out: Tmax
Procedure: The liver and the colon homogenates were prepared with 10 times (V: W) the volume of ascorbic acid solution (200 μg/ml). Then the homogenates were pretreated as plasma to obtain the tissue samples for LC-MS/MS analysis. […] Then the C-T curves of the constituents in the plasma and the tissue homogenates were respectively drawn and their pharmacokinetic parameters were respectively calculated. […] The results were expressed as mean ± SD.
I'd appreciate it if you could supply Tmax values for the items below.

These recorded examples may help you get a feel for the data.
COMPOUND	VALUE_KIND	MEASURED
COc1ccc2cc3[n+](cc2c1OC)CCc1cc2c(cc1-3)OCO2 [Berberine, berberine]	Tmax	4 h
COc1cc2c(cc1O)CC[n+]1cc3c(OC)c(OC)ccc3cc1-2 [Jatrorrhizine, jatrorrhizine]	Tmax	4 h

Please go through the list and note Tmax for each compound.
1. O=c1c(-c2ccc(O)cc2)coc2c([C@@H]3O[C@H](CO)[C@@H](O)[C@H](O)[C@H]3O)c(O)ccc12 [Puerarin, puerarin]
2. COc1ccc2c(c1O)-c1c(O)c(OC)cc3c1[C@H](C2)[N+](C)(C)CC3 [Magnoflorine, magnoflorine]
3. COc1c(O)cc(O)c2c(=O)cc(-c3ccccc3)oc12 [Wogonin, wogonin]
4. CC1(C)[C@@H](O[C@H]2O[C@H](C(=O)O)[C@@H](O)[C@H](O)[C@H]2O[C@@H]2O[C@H](C(=O)O)[C@@H](O)[C@H](O)[C@H]2O)CC[C@]2(C)[C@H]3C(=O)C=C4[C@@H]5C[C@@](C)(C(=O)O)CC[C@]5(C)CC[C@@]4(C)[C@]3(C)CC[C@@H]12 [Glycyrrhizic acid, glycyrrhizic acid]

1. 4 h
2. 4 h
3. 4 h
4. 2 h

These data points were gathered from paper PMC9592910.
